Test: in vivo
Set-up: species or system Sprague-Dawley male rats
Conditions: rat, 15 mg/kg, Concentration
Counter-ions that a name gives are not always drawn.

| COMPOUND | concentration at 0.25 h / ng/mL |
| --- | --- |
| CCN(CC)CCNC(=O)c1cc(Cl)c(N)cc1OC [metoclopramide hydrochloride] | 850 |

====

Test: in vivo
Design: species or system Sprague-Dawley male rats
Conditions: rat, 15 mg/kg, Concentration
Where a name gives a salt, the structure may show the parent alone.

| COMPOUND | concentration at 1 h (ng/mL) |
| --- | --- |
| CCN(CC)CCNC(=O)c1cc(Cl)c(N)cc1OC [metoclopramide hydrochloride] | 1610 |
